Target: von Hippel-Lindau disease tumor suppressor/Mitogen-activated protein kinase 7 (Homo sapiens, UniProt Q13164+P40337)
Sequence (P40337 whole entry partner): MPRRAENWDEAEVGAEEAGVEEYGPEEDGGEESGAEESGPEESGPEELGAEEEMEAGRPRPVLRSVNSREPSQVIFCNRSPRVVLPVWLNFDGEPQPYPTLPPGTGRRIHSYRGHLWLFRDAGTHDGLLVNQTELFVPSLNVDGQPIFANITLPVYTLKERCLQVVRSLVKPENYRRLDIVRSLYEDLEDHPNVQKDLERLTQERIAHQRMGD
Sequence (Q13164 2-816 limits assumed): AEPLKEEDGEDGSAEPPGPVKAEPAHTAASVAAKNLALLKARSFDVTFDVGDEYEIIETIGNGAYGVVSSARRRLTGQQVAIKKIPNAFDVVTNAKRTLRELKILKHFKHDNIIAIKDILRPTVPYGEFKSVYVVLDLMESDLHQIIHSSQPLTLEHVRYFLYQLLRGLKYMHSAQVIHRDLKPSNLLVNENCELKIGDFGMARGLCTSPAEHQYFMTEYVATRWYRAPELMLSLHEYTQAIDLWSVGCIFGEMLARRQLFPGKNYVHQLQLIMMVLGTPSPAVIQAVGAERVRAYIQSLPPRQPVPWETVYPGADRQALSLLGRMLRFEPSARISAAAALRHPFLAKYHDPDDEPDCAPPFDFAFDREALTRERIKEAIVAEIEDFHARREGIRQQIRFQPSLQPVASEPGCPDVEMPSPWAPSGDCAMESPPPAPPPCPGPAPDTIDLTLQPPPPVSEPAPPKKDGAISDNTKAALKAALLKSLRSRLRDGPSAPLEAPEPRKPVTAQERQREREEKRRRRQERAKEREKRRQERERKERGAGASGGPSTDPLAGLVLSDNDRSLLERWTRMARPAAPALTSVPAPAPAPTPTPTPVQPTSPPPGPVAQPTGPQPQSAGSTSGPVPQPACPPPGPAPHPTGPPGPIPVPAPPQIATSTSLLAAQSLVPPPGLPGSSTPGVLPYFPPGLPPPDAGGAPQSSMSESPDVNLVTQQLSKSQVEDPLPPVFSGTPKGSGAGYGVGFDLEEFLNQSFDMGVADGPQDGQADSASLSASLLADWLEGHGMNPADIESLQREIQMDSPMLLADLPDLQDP
Experiment: PROTAC activity at VHL/ERK5 in human A-375 cells assessed as induction of ERK5 degradation at 100 nM incubated for 24 hrs by western blot analysis
Format: cell-based
Activity calls are given as the source filed them. No cut-off for these calls is given here.
Outcome (select one): active, inactive

A selection of reference data follows.
>>> group("COc1cc(C(=O)N2CCN(CCCCCC(=O)N[C@H](C(=O)N3C[C@H](O)C[C@H]3C(=O)N[C@@H](C)c3ccc(-c4scnc4C)cc3)C(C)(C)C)CC2)ccc1Nc1ncc2c(n1)N(C)c1ccccc1C(=O)N2C")
"active"
>>> group("COc1cc(N2CCN(C(=O)CCCCC#Cc3cccc4c3CN(C3CCC(=O)NC3=O)C4=O)CC2)ccc1Nc1ncc2c(n1)N(C)c1ccccc1C(=O)N2C (centres undefined)")
"inactive"

Query: Record lookup: outcome of this test for COc1cc(C(=O)N2CCN(C(=O)CCCCC#Cc3cccc4c3CN(C3CCC(=O)NC3=O)C4=O)CC2)ccc1Nc1ncc2c(n1)N(C)c1ccccc1C(=O)N2C (centres undefined) ?
Reply: inactive

Query: Hello, I am checking results. What call was entered for `COc1cc(N2CCN(CCCCCCC(=O)N[C@H](C(=O)N3C[C@H](O)C[C@H]3C(=O)N[C@@H](C)c3ccc(-c4scnc4C)cc3)C(C)(C)C)CC2)ccc1Nc1ncc2c(n1)N(C)c1ccccc1C(=O)N2C` ?
Reply: active

Query: Hi team, can someone confirm the assay call for `COc1cc(N2CCN(CCCCCCCCCCC(=O)N[C@H](C(=O)N3C[C@H](O)C[C@H]3C(=O)N[C@@H](C)c3ccc(-c4scnc4C)cc3)C(C)(C)C)CC2)ccc1Nc1ncc2c(n1)N(C)c1ccccc1C(=O)N2C` ?
Reply: active

Query: Write down the call the test reported for this molecule. Item: COc1cc(NC(=O)NCCOCCOCCNc2cccc3c2C(=O)N(C2CCC(=O)NC2=O)C3=O)ccc1Nc1ncc2c(n1)N(C)c1ccccc1C(=O)N2C (centres undefined)
Reply: inactive

Query: Per the records of this test, what outcome belongs to `COc1cc(N2CCC(OCCCCCC(=O)N[C@H](C(=O)N3C[C@H](O)C[C@H]3C(=O)N[C@@H](C)c3ccc(-c4scnc4C)cc3)C(C)(C)C)CC2)ccc1Nc1ncc2c(n1)N(C)c1ccccc1C(=O)N2C` ?
Reply: active

====

Target: Mitogen-activated protein kinase 7 (Homo sapiens)
Sequence (Q13164 whole entry): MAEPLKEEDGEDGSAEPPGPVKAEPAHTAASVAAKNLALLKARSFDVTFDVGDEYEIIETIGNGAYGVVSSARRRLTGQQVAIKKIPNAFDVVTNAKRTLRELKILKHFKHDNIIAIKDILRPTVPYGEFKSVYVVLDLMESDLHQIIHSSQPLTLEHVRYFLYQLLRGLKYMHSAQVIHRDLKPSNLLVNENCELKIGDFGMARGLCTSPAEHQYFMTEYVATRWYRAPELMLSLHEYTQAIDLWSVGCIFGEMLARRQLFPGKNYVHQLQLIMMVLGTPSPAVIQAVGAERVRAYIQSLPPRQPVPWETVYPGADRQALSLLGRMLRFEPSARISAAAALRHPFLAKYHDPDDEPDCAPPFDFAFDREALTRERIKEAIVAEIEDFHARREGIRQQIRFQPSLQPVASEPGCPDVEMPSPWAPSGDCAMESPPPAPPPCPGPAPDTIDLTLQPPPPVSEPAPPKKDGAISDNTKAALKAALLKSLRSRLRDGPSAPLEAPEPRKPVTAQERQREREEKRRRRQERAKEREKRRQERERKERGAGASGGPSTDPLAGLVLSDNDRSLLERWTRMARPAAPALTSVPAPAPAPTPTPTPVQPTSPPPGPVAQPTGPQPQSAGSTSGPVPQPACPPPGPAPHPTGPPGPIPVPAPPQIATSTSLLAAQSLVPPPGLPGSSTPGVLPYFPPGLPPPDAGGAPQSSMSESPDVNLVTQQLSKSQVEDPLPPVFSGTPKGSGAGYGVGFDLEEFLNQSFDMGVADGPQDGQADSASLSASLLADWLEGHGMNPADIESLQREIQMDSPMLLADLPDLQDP
Experiment: Inhibition of ERK5 (unknown origin) by ADP-Glo kinase assay
pIC50: −log10 of the molar value.
quantity-name: pIC50

>>> value_reported("COc1cc(N2CCN(CCCCCCCC(=O)N[C@H](C(=O)N3C[C@H](O)C[C@H]3C(=O)N[C@@H](C)c3ccc(-c4scnc4C)cc3)C(C)(C)C)CC2)ccc1Nc1ncc2c(n1)N(C)c1ccccc1C(=O)N2C")
7.17

I: COc1cc(N2CCN(CCCCCCC(=O)N[C@H](C(=O)N3C[C@H](O)C[C@H]3C(=O)N[C@@H](C)c3ccc(-c4scnc4C)cc3)C(C)(C)C)CC2)ccc1Nc1ncc2c(n1)N(C)c1ccccc1C(=O)N2C
II: CCOC(=O)CCCCCCN1CCN(c2ccc(Nc3ncc4c(n3)N(C)c3ccccc3C(=O)N4C)c(OC)c2)CC1
III: COc1cc(N2CCNCC2)ccc1Nc1ncc2c(n1)N(C)c1ccccc1C(=O)N2C
Query: Order field: pIC50 | Direction: descending (largest first) // respond by listing labels in the order requested
Reply: III, II, I
(III: 8.00, II: 7.57, I: 7.20)

====

Target: von Hippel-Lindau disease tumor suppressor/Mitogen-activated protein kinase 7 (Homo sapiens, UniProt Q13164+P40337)
Assay: PROTAC activity at VHL/ERK5 in human A-375 cells assessed as induction of ERK5 degradation at 100 nM incubated for 24 hrs by western blot analysis
Format: cell-based
Active and inactive are the calls of the source. The rule behind the calls is not given here.
// classify into active, inactive

Query: What did this assay record as the result for COc1cc(NC(=O)NCCCCCNc2cccc3c2C(=O)N(C2CCC(=O)NC2=O)C3=O)ccc1Nc1ncc2c(n1)N(C)c1ccccc1C(=O)N2C (configuration not stated) ?
Reply: inactive

Query: Hi team, can someone confirm the assay call for COc1cc(NC(=O)CCCCCCCCCCNc2cccc3c2C(=O)N(C2CCC(=O)NC2=O)C3=O)ccc1Nc1ncc2c(n1)N(C)c1ccccc1C(=O)N2C (configuration not stated) ?
Reply: inactive

====

Target: von Hippel-Lindau disease tumor suppressor/Mitogen-activated protein kinase 7 (Homo sapiens, UniProt Q13164+P40337)
Experiment: PROTAC activity at VHL/ERK5 in human A-375 cells assessed as induction of ERK5 degradation at 100 nM incubated for 24 hrs by western blot analysis
Format: cell-based
The source made the active and inactive calls. The calls are words filed in the database; no cut-off is given here.
Hi! Could you answer with just one of these? TRUE = active, FALSE = inactive

Observe how each entry below is paired with its result.
>>> group("COc1cc(N2CCN(CCCCCCCC(=O)N[C@H](C(=O)N3C[C@H](O)C[C@H]3C(=O)N[C@@H](C)c3ccc(-c4scnc4C)cc3)C(C)(C)C)CC2)ccc1Nc1ncc2c(n1)N(C)c1ccccc1C(=O)N2C")
"TRUE"
>>> group("COc1cc(N2CCN(CCOCCOCCCN[C@H](C(=O)N3C[C@H](O)C[C@H]3C(=O)N[C@@H](C)c3ccc(-c4scnc4C)cc3)C(C)(C)C)CC2)ccc1Nc1ncc2c(n1)N(C)c1ccccc1C(=O)N2C")
"TRUE"
>>> group("COc1cc(N2CCN(CCCCC(=O)N[C@H](C(=O)N3C[C@H](O)C[C@H]3C(=O)N[C@@H](C)c3ccc(-c4scnc4C)cc3)C(C)(C)C)CC2)ccc1Nc1ncc2c(n1)N(C)c1ccccc1C(=O)N2C")
"TRUE"
>>> group("COc1cc(NC(=O)NCCOCCNc2cccc3c2C(=O)N(C2CCC(=O)NC2=O)C3=O)ccc1Nc1ncc2c(n1)N(C)c1ccccc1C(=O)N2C (stereo not given)")
"FALSE"
>>> group("COc1cc(NC(=O)NCCOCCOCCOCCNc2cccc3c2C(=O)N(C2CCC(=O)NC2=O)C3=O)ccc1Nc1ncc2c(n1)N(C)c1ccccc1C(=O)N2C (stereo not given)")
"FALSE"

Query: Recorded call for COc1cc(NC(=O)CNc2cccc3c2C(=O)N(C2CCC(=O)NC2=O)C3=O)ccc1Nc1ncc2c(n1)N(C)c1ccccc1C(=O)N2C (stereo not given) ?
Reply: FALSE

Query: Please state the recorded outcome for this molecule: COc1cc(NC(=O)NCCCCNc2cccc3c2C(=O)N(C2CCC(=O)NC2=O)C3=O)ccc1Nc1ncc2c(n1)N(C)c1ccccc1C(=O)N2C (stereo not given)
Reply: FALSE

Query: Dear colleague, could you share the recorded outcome for `COc1cc(N2CCN(CCCCCCCCC(=O)N[C@H](C(=O)N3C[C@H](O)C[C@H]3C(=O)N[C@@H](C)c3ccc(-c4scnc4C)cc3)C(C)(C)C)CC2)ccc1Nc1ncc2c(n1)N(C)c1ccccc1C(=O)N2C` when you have a moment?
Reply: TRUE

====

Target: von Hippel-Lindau disease tumor suppressor/Mitogen-activated protein kinase 7 (Homo sapiens, UniProt Q13164+P40337)
Assay: PROTAC activity at VHL/ERK5 in human A-375 cells assessed as induction of ERK5 degradation at 100 nM incubated for 24 hrs by western blot analysis
Format: cell-based
Calls of active or inactive are those of the source. No cut-off for these calls is given here.
Choose the fitting class; nothing outside active, inactive is accepted.

Recorded results for 6 compounds are shown here.
>>> group("COc1cc(NC(=O)CCCCCn2cc(CCNc3cccc4c3C(=O)N(C3CCC(=O)NC3=O)C4=O)nn2)ccc1Nc1ncc2c(n1)N(C)c1ccccc1C(=O)N2C (configuration not stated)")
"inactive"
>>> group("COc1cc(N2CCN(CCOCC#Cc3cccc4c3CN(C3CCC(=O)NC3=O)C4=O)CC2)ccc1Nc1ncc2c(n1)N(C)c1ccccc1C(=O)N2C (configuration not stated)")
"active"
>>> group("COc1cc(NC(=O)NCCCCCCNc2cccc3c2C(=O)N(C2CCC(=O)NC2=O)C3=O)ccc1Nc1ncc2c(n1)N(C)c1ccccc1C(=O)N2C (configuration not stated)")
"inactive"
>>> group("COc1cc(N2CCN(CCCCCC(=O)N[C@H](C(=O)N3C[C@H](O)C[C@H]3C(=O)N[C@@H](C)c3ccc(-c4scnc4C)cc3)C(C)(C)C)CC2)ccc1Nc1ncc2c(n1)N(C)c1ccccc1C(=O)N2C")
"active"
>>> group("COc1cc(N2CCN(CCOCCNc3cccc4c3C(=O)N(C3CCC(=O)NC3=O)C4=O)CC2)ccc1Nc1ncc2c(n1)N(C)c1ccccc1C(=O)N2C (configuration not stated)")
"active"
>>> group("COc1cc(N2CCN(CCCCCCCCCC(=O)N[C@H](C(=O)N3C[C@H](O)C[C@H]3C(=O)N[C@@H](C)c3ccc(-c4scnc4C)cc3)C(C)(C)C)CC2)ccc1Nc1ncc2c(n1)N(C)c1ccccc1C(=O)N2C")
"active"

Query: Could you kindly confirm the outcome this assay logged for COc1cc(NC(=O)NCCCNc2cccc3c2C(=O)N(C2CCC(=O)NC2=O)C3=O)ccc1Nc1ncc2c(n1)N(C)c1ccccc1C(=O)N2C (configuration not stated) ?
Reply: inactive

These entries and their values trace back to ChEMBL document CHEMBL5365526.
